- assay_system: C5aR (Homo sapiens (Human), UniProt P21730)
- Sequence (P21730 whole entry): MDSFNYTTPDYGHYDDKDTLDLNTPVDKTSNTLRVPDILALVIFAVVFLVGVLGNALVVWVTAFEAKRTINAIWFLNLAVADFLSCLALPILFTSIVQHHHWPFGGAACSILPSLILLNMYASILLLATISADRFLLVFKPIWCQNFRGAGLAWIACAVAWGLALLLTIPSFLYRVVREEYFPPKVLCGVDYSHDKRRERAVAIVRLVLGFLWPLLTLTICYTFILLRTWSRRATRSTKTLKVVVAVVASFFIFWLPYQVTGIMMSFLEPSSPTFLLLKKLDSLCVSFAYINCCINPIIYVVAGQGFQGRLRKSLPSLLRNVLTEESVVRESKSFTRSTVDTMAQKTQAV
- assay_summary: Inhibition of C5a-C5aR binding determined by cell migration assay (U937/C5aR cells)
- Format: cell-based
- condition_summary: U937/C5aR cell migration towards human C5a, 180 min
test_readout: IC50

Before answering, review these 10 worked examples.
compound: Cc1cccc(F)c1C(=O)N1[C@@H]2CCC[C@@H]2C[C@H](C(=O)Nc2cccc(S(C)(=O)=O)c2)[C@@H]1c1ccc(NC2CCCC2)cc1 (racemic)
IC50: 500 to 2000 nM

compound: Cc1cccc(F)c1C(=O)N1C(c2ccc(NC3CCCC3)cc2)C(C(=O)Nc2ccc3c(cnn3C)c2)C[C@@H]2CCC[C@@H]21 (relative stereo)
IC50: 50 to 500 nM

compound: Cc1cccc(F)c1C(=O)N1[C@@H]2CCC[C@@H]2C[C@H](C(=O)Nc2ccc3c(cnn3C)c2)[C@@H]1c1ccc(NC2CCOCC2)cc1
IC50: < 50 nM

compound: Cc1ccc(NC(=O)[C@H]2CCCN(c3ncnc4cnccc34)[C@H]2c2ccc(NC3CCCC3)cc2)cc1C(F)(F)F
IC50: 500 to 2000 nM

compound: Cc1cccc(F)c1C(=O)N1[C@@H]2COC[C@@H]2C[C@H](C(=O)Nc2ccc3[nH]ncc3c2)[C@@H]1c1ccc(NC2CCCC2)cc1
IC50: 500 to 2000 nM

compound: Cc1ccc(NC(=O)[C@H]2CCCN(c3nccc4cccnc34)[C@H]2c2ccc(N(C(=O)OCc3ccccc3)C3CCCC3)cc2)cc1C(F)(F)F
IC50: 2000 to 5000 nM

compound: Cc1cccc(F)c1C(=O)N1CCC[C@H](c2nc3cc(C(C)(C)C)ccc3o2)[C@@H]1c1ccc(NC2CCCC2)cc1
IC50: > 5000 nM

compound: Cc1cccc(F)c1C(=O)N1[C@@H]2CCC[C@@H]2C[C@H](C(=O)Nc2ccc(N(C)C)cc2)[C@@H]1c1ccc(NC2CCCC2)cc1
IC50: < 50 nM

compound: Cc1cccc(F)c1C(=O)N1[C@@H]2CCC[C@@H]2C[C@H](C(=O)Nc2ccc3cnn(C4COC4)c3c2)[C@@H]1c1ccc(NC2CCCC2)cc1 (racemic)
IC50: 50 to 500 nM

compound: Cc1ccc(NC(=O)[C@H]2CCCN(S(=O)(=O)c3c(F)c(F)c(F)c(F)c3F)[C@H]2c2ccc(NC3CCCC3)cc2)cc1C(F)(F)F
IC50: > 5000 nM

API: value(readout=IC50, system=C5aR (Homo sapiens (Human), UniProt P21730)) for record Cc1cccc(F)c1C(=O)N1C(c2ccc(NC3CCOCC3)cc2)C(C(=O)Nc2ccc3c(cnn3C)c2)C[C@@H]2CCC[C@@H]21 (relative stereo) < 50 nM

Item Cc1ccc(NC(=O)C2C[C@H]3CCC[C@H]3N(C(=O)c3cscn3)C2c2ccc(NC3CCCC3)cc2)cc1C(F)(F)F (relative stereo) with C5aR (Homo sapiens (Human), UniProt P21730) - IC50? 50 to 500 nM
